# experimental-target: Protein Tat (Human immunodeficiency virus type 1 group M subtype B (isolate HXB2)) (UniProt P04608)
# Sequence (P04608 whole entry, looked up): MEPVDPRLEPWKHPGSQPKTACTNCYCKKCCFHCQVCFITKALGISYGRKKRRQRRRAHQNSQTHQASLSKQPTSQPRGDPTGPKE
# assay-text: inhibitors of Tat binding to TAR RNA, dose response, counter-screen for Vif-APOBEC3G degradation inhibitor project, biochemical, fluorescence polarization, FAM-labeled TAR RNA (AID 1117361)
property-label: IC50

molecule="CN(C)c1ccc(O)c2c1CC1CC3[C@@H](N(C)C)C(=O)C(C(N)=O)=C(O)[C@]3(O)C(=O)C1=C2O (stereo not given in full)" property_label=IC50 measured="6.14 µM"
molecule=CCC1=NN2C(=N)/C(=C\c3ccc(SCc4ccco4)o3)C(=O)N=C2S1 property_label=IC50 measured="63.3 µM"
molecule=Cc1nc2c(=O)[nH]c(=S)[nH]c2[nH]c1=O property_label=IC50 measured="13.2 µM"
molecule="COc1ccc(NC(=O)CC2Nc3cccc4cccc(c34)NC2=O)cc1 (stereo not given)" property_label=IC50 measured="7.03 µM"

Noted for N#CC1=C(N)C2=C(N3CCCCC3)CCCC2C1(C#N)C#N (stereo not given) : its IC50 reads 5.45 µM
